The measurements presented in this section are drawn from PubChem BioAssay (NCI).

System: NCI-H322M lung
experiment-description: NCI-60 one-dose screen, 48 h (100 = growth as untreated, 0 = no growth, -100 = all killed)
measurement-setup: 10 µM unless noted
Compounds without any hit were thinned out: in the full panel of roughly 83,000, 20% have a hit.
Binning rule for recorded growth: lower level = under 60%, middle level = from 60% up to 90%, upper level = 90% and over

[[record]]
compound = "Nc1c(C(=O)Nc2ccncc2)sc2nc3c(cc12)CCCCCC3"
label = "middle level"

[[record]]
compound = "CCN(CC)CCOc1ccc(C(=C(C)c2ccc(Cl)cc2)c2ccc(OCCN(CC)CC)cc2)cc1"
label = "lower level"

[[record]]
compound = "COC(=O)[C@H]1CCCN1C[C@@H](O)CN1C(=O)/C(=C\\c2cc(OC)c(OC)c(OC)c2)c2ccccc21"
label = "upper level"

[[record]]
compound = "OCc1cccc(-c2ccc3ncc(-c4nc(NC5CC5)ncc4F)n3c2)c1"
label = "lower level"

[[record]]
compound = "CNc1nc(S(=O)c2ccc(C#N)cc2)nc2ccccc12 (centres undefined)"
label = "upper level"

[[record]]
compound = "N#C/C(=C\\c1ccc(Br)cc1)n1nnc2ccc(F)cc21"
label = "lower level"

[[record]]
compound = "Clc1ccc2c(c1)N(c1ncnc3ccc(-c4cnc5[nH]ncc5c4)cc13)CC2"
label = "lower level"

[[record]]
compound = "COc1ccc(C2c3sc4c(F)cccc4c3Oc3nc[nH]c(=O)c32)cc1 (centres undefined)"
label = "middle level"

[[record]]
compound = "N#Cc1nc(-c2ccccc2)oc1S(=O)(=O)N1CCOCC1"
label = "upper level"

[[record]]
compound = "O=C(CCCCC1CCSS1)Nc1ncnc2n[nH]c(-c3ccc(Oc4ccccc4)cc3)c12 (centres undefined)"
label = "middle level"

[[record]]
compound = "COc1ccc(-c2cn(-c3cc(OC)c(OC)c(OC)c3)c(=O)n2C(C)=O)cc1"
label = "upper level"

[[record]]
compound = "CC[C@@H](C(=O)[C@@H](C)[C@@H](O)[C@H](C)[C@@H]1O[C@@H]([C@@H](CC)C(=O)NCCc2ccc(F)cc2)CC[C@@H]1C)C1O[C@]2(C=CC(=O)[C@]3(CC[C@@](C)([C@H]4CC[C@](O)(CC)[C@H](C)O4)O3)O2)[C@H](C)C[C@@H]1C (some centres undefined)"
label = "middle level"

[[record]]
compound = "CCc1nc2c(=O)[nH]cnc2o1"
label = "upper level"

[[record]]
compound = "COc1cc(-c2nc(SCC(C)C)nc(Nc3cccc4ccccc34)c2C#N)cc(OC)c1OC"
label = "upper level"

[[record]]
compound = "O=CC1(C2(C=O)c3ccccc3-c3ccccc32)c2ccccc2-c2ccccc21"
label = "lower level"

[[record]]
compound = "CCN(c1ccc(Cl)cc1)c1nc(-c2ccc([N+](=O)[O-])cc2)cs1"
label = "middle level"

[[record]]
compound = "COc1ccc(-c2cc(-c3ccc(Cl)cc3)c(C#N)c(=O)n2CCCCC(=O)Nc2ccccc2N)cc1"
label = "middle level"


----------
System: COLO 205 colon
experiment-description: NCI-60 one-dose screen, 48 h
measurement-setup: 10 µM unless noted
Compounds without any hit were thinned out: in the full panel of roughly 83,000, 20% have a hit. Calls of active or inactive are those of the source. Rule for the calls: active = growth percent below 10; inactive = the rest.
Classes used: active, inactive

[[record]]
compound = "O=C1CNC(c2ccccc2)C(c2ccccc2)N1 (stereo not given)"
label = "inactive"

[[record]]
compound = "S=C1CCSC(=S)N1CCCN1C(=S)CCSC1=S"
label = "inactive"

[[record]]
compound = "CCOC(=O)CNP(=O)(OC[C@@H](Cc1ccccc1)NC(=O)c1cc2ccccc2s1)Oc1ccccc1 (stereo not given in full)"
label = "inactive"

[[record]]
compound = "CCOC(=O)C#Cc1c(C(=O)OCC)nnn1[C@@H]1O[C@H](CO)[C@H]2OC3(CCCCC3)O[C@H]21"
label = "active"

[[record]]
compound = "O=C1COCCN1c1ccc(Nc2nc(Cl)nc(OCc3cn(Cc4ccccc4)nn3)n2)cc1"
label = "inactive"

[[record]]
compound = "N=C(N)c1ccc(-c2ccc(-c3ccc(F)cc3)o2)o1"
label = "active"

[[record]]
compound = "O=C1c2c(c3c4ccccc4[nH]c3c3ccc4ccccc4c23)C(=O)N1CCN1CCCCC1"
label = "inactive"

[[record]]
compound = "CN1CCN(Cc2ccc3c(NNC(=O)c4ccccc4)nc4cc(F)ccc4n23)CC1"
label = "inactive"

[[record]]
compound = "O=C1/C(=C/c2ccc(Cl)c(Cl)c2)CN(C(=O)C(Cl)Cl)C/C1=C\\c1ccc(Cl)c(Cl)c1"
label = "active"

[[record]]
compound = "O=CC1(C2(C=O)c3ccccc3-c3ccccc32)c2ccccc2-c2ccccc21"
label = "active"


----------
Tested on: HOP-92 NSCLC
experiment-description: NCI-60 one-dose screen, 48 h (100 = growth as untreated, 0 = no growth, -100 = all killed)
measurement-setup: 10 µM unless noted
Compounds without any hit were thinned out: in the full panel of roughly 83,000, 20% have a hit.
The following compounds are listed with their measured growth values.
readout-type: growth (%)

[[record]]
compound = "CC(=O)OCc1nc(C#N)c(N(C)C)o1"
system_name = "HOP-92 NSCLC"
quantitative_result = 83

[[record]]
compound = "Nc1nc(=S)c2ncn(C3OC(COP(=O)(O)O)C(O)C3O)c2[nH]1 (stereo not given)"
system_name = "HOP-92 NSCLC"
quantitative_result = 33.4

[[record]]
compound = "O=C(O)c1ccc(-n2cc(/C=N/Nc3ccc(F)cc3)c(-c3cc4ccccc4oc3=O)n2)cc1"
system_name = "HOP-92 NSCLC"
quantitative_result = 81.5

[[record]]
compound = "CCn1c(=S)[nH]c2c(=O)n(C)c(=O)n(C)c21"
system_name = "HOP-92 NSCLC"
quantitative_result = 89.8

[[record]]
compound = "O=C1COCCN1c1ccc(Nc2nc(Cl)nc(OCc3cn(Cc4ccccc4)nn3)n2)cc1"
system_name = "HOP-92 NSCLC"
quantitative_result = 82.5


----------
The following compounds are listed with their measured growth values.
Tested on: MDA-MB-435 melanoma
experiment-description: NCI-60 one-dose screen, 48 h (100 = growth as untreated, 0 = no growth, -100 = all killed)
measurement-setup: 10 µM unless noted
Compounds without any hit were thinned out: in the full panel of roughly 83,000, 20% have a hit.
readout-type: growth (%)

[[record]]
compound = "CCNc1cc(-c2cccc(OC(F)(F)F)c2)nc2ccc(N3CCCC3)cc12"
readout_type = "growth"
quantitative_result = 2.21

[[record]]
compound = "O=[N+]([O-])C1C(c2ccccc2)C12c1ccccc1-c1ccccc12 (stereo not given)"
readout_type = "growth"
quantitative_result = -23.1

[[record]]
compound = "CC(=O)Nc1nc2ccc(NS(=O)(=O)c3cccc4c(N(C)C)cccc34)cc2[nH]1"
readout_type = "growth"
quantitative_result = -28.6

[[record]]
compound = "CCn1c(SCC(=O)c2ccc(Br)cc2)nnc1-c1ccncc1"
readout_type = "growth"
quantitative_result = 102

[[record]]
compound = "COC(=O)c1c2c(c(C)[n+]([O-])c1C)C(=O)C=C(NCc1ccc(OC)cc1)C2=O"
readout_type = "growth"
quantitative_result = -91.6

[[record]]
compound = "COc1ccc(N2CCC(=O)NC2=S)cc1"
readout_type = "growth"
quantitative_result = 109

[[record]]
compound = "CN(C)CCNc1nc2c3cc(Cl)ccc3nn2c2ccccc12"
readout_type = "growth"
quantitative_result = 65.3

[[record]]
compound = "CCc1ccc(Oc2cn[nH]c2-c2ccc(OCCc3ccc(F)cc3)cc2O)cc1"
readout_type = "growth"
quantitative_result = 91.6

[[record]]
compound = "Cc1oc(-c2ccc(Cl)cc2)nc1/C=C/C(=O)c1ccccc1"
readout_type = "growth"
quantitative_result = 103

[[record]]
compound = "Cc1ccc(Sc2oc(-c3ccc(C)cc3)nc2[P+](c2ccccc2)(c2ccccc2)c2ccccc2)cc1"
readout_type = "growth"
quantitative_result = -30.3


----------
System: ACHN renal
experiment-description: NCI-60 one-dose screen, 48 h (100 = growth as untreated, 0 = no growth, -100 = all killed)
measurement-setup: 10 µM unless noted
The panel holds about 83,000 compounds, 20% with a hit somewhere; the sample as a whole holds those more often.
readout-type: growth (%)

[[record]]
smiles_input = "COC(=O)[C@H]1CCCN1C[C@@H](O)CN1C(=O)/C(=C\\c2cc(OC)c(OC)c(OC)c2)c2ccccc21"
system_name = "ACHN renal"
unit = "%"
quantitative_result = 105

[[record]]
smiles_input = "COc1ccc(/C=N/NC(=O)CCN2c3ccccc3Sc3ccccc32)cc1"
system_name = "ACHN renal"
unit = "%"
quantitative_result = 86.6

[[record]]
smiles_input = "Nc1c(C(=O)Nc2ccncc2)sc2nc3c(cc12)CCCCCC3"
system_name = "ACHN renal"
unit = "%"
quantitative_result = 108

[[record]]
smiles_input = "COc1cc(-c2cc(-c3cccs3)c(C#N)c(N3CCOCC3)n2)cc(OC)c1OC"
system_name = "ACHN renal"
unit = "%"
quantitative_result = 71.2

